# System: cocklebur
# test_protocol: Test B pre/postemergence cocklebur
# Type: in vivo, Xanthium strumarium
# run_parameters: Rate 62 g/ha, Postemergence; scale of 0 to 10 where 0 is no effect and 10 is complete control
Please respond with reported Cocklebur plant response rating for every item in the list.
One number for each entry.

Check out these entries, answers already filled in.
>>> observed_measurement("CC(C)N(C(=O)n1oc(=O)n(C2CCCCC2)c1=O)c1ccccc1 [Compound 112]")
0
>>> observed_measurement("CC(C)N(C(=O)n1oc(=O)n(C2CC2)c1=O)c1ccc(F)cc1 [Compound 242]")
5

Would you mind listing Cocklebur plant response rating for each of the following compounds?
1. CC(C)N(C(=O)n1oc(=O)n(CC(=O)C(C)(C)C)c1=O)c1ccc(F)cc1 [Compound 216]
2. Cc1cccc(C(C)(C)C)c1-n1c(=O)on(C(=O)N(c2ccc(F)cc2)C(C)C)c1=O [Compound 359]
3. CCc1ccc(N(C(=O)n2oc(=O)n(-c3ccccc3C)c2=O)C(C)C)cc1 [Compound 230]

Given back:
[0, 0, 0]
